# System: E. coli TESEC Mtb DapB
# experiment_summary: growth (OD600 after 10 h); higher = more growth (less inhibition)
# recorded_conditions: arabinose induction (level): Low; compound 0.1 mM; raw OD600 reference: median of DMSO wells 0.227, cell-free background 0.041
Structures can show the parent of a compound that is named as a salt.
property: growth

[[record]]
molecule = "CC(CCc1ccc(O)cc1)NCCc1ccc(O)c(O)c1 (stereo not given) [Dobutamine hydrochloride]"
tested_system = "E. coli TESEC Mtb DapB"
property = "growth"
quantitative_result = 0.167

[[record]]
molecule = "CNc1ncnc2c1ncn2[C@@H]1O[C@H](CO)[C@@H](O)[C@H]1O"
tested_system = "E. coli TESEC Mtb DapB"
property = "growth"
quantitative_result = 0.209

[[record]]
molecule = "CC1(C)S[C@@H]2[C@H](NC(=O)Cc3ccccc3)C(=O)N2[C@H]1C(=O)O [Benzylpenicillin sodium]"
tested_system = "E. coli TESEC Mtb DapB"
property = "growth"
quantitative_result = 0.229

[[record]]
molecule = "C[C@]12CC[C@@H]3c4ccc(OS(=O)(=O)O)cc4CC[C@H]3[C@@H]1CCC2=O [Estropipate]"
tested_system = "E. coli TESEC Mtb DapB"
property = "growth"
quantitative_result = 0.195

[[record]]
molecule = "O=C(NC(Cc1cc(=O)[nH]c2ccccc12)C(=O)O)c1ccc(Cl)cc1 (stereo not given) [Rebamipide]"
tested_system = "E. coli TESEC Mtb DapB"
property = "growth"
quantitative_result = 0.244


* * *

# Test system: E. coli TESEC Mtb Alr
# experiment_summary: growth (OD600 after 10 h); higher = more growth (less inhibition)
# recorded_conditions: arabinose 1000000 nM; compound 0.1 mM; raw OD600 reference: median of DMSO wells 0.193, cell-free background 0.041
Where a name gives a salt, the structure may show the parent alone.
Property: growth; scope: individual compounds
property: growth

[[record]]
compound = "CNc1ncnc2c1ncn2[C@@H]1O[C@H](CO)[C@@H](O)[C@H]1O [N6-methyladenosine]"
tested_system = "E. coli TESEC Mtb Alr"
property = "growth"
quantitative_result = 0.189

[[record]]
compound = "CN(C)CCN1C(=O)c2ccccc2N(C)c2ccccc21 [Dibenzepine hydrochloride]"
tested_system = "E. coli TESEC Mtb Alr"
property = "growth"
quantitative_result = 0.167

[[record]]
compound = "CCCCc1nc(Cl)c(CO)n1Cc1ccc(-c2ccccc2-c2nnn[nH]2)cc1 [Losartan]"
tested_system = "E. coli TESEC Mtb Alr"
property = "growth"
quantitative_result = 0.161

[[record]]
compound = "Cc1nc(=O)c2cc(CN(C)c3ccc(C(=O)N[C@@H](CCC(=O)O)C(=O)O)s3)ccc2[nH]1 [Raltitrexed]"
tested_system = "E. coli TESEC Mtb Alr"
property = "growth"
quantitative_result = 0.173

[[record]]
compound = "CCN[C@H]1C[C@H](C)S(=O)(=O)c2sc(S(N)(=O)=O)cc21 [Dorzolamide hydrochloride]"
tested_system = "E. coli TESEC Mtb Alr"
property = "growth"
quantitative_result = 0.187

[[record]]
compound = "O=C(O)c1cn(-c2ccc(F)cc2)c2cc(N3CCNCC3)c(F)cc2c1=O [Sarafloxacin]"
tested_system = "E. coli TESEC Mtb Alr"
property = "growth"
quantitative_result = 0.0405

[[record]]
compound = "CCOC(=O)[C@@](C)(N)Cc1ccc(O)c(O)c1 [Methyldopate hydrochloride]"
tested_system = "E. coli TESEC Mtb Alr"
property = "growth"
quantitative_result = 0.0901

[[record]]
compound = "CN1CCN(c2c(F)cc3c(=O)c(C(=O)O)cn(CCF)c3c2F)CC1 [Fleroxacin]"
tested_system = "E. coli TESEC Mtb Alr"
property = "growth"
quantitative_result = 0.0445

